Target: UniProt C7C422
Test: Enzyme activity: determination of IC50, fluorescence assay with CCF2-FA substrate
Type: biochemical
Settings: enzyme 1 pM, CCF2-FA 1.25 μM, 2 hours at 25° C.; read-out: NDM1 IC50
experimental_readout: log10 of IC50 (log10 of the value in nM)
Short version: log10 scale, IC50, nM.

Look over these answered cases.
1) CC(C)C[C@H](C(=O)O)[C@H](Cc1ccc(-c2ccc3c(c2)CNC3)cn1)c1nnn[nH]1 : 2.78
2) CCC[C@H](C(=O)O)[C@H](Cc1ccc(-c2ccccc2CN2CCOCC2)cc1)c1nn[nH]n1 : 1.38
3) CCC[C@H](C(=O)O)[C@H](Cc1ccc(NCCN2CCOCC2)cc1)c1nn[nH]n1 : 2.15
4) CC(C)C[C@H](C(=O)O)[C@H](Cc1ccc(C#N)cc1)c1nnn[nH]1 : 1.87
5) CCC[C@H](C(=O)O)[C@H](Cc1ccc(NCCN2CCN(C(C)C)CC2)cc1)c1nn[nH]n1 : 2.32
6) CC(C)[C@H](C(=O)O)[C@H](Cc1ccc(-c2cn[nH]c2)cc1)c1nnn[nH]1 : 0.81

--- query ---
The recorded log10 of IC50 for `CC(C)C[C@H](C(=O)O)[C@@H](c1nnn[nH]1)[C@H](C)c1ccccc1` is 1.20

---

Biological target: IMP-1 (Serratia marcescens, UniProt P52699)
Sequence (P52699 19-246, looked up, species assumed): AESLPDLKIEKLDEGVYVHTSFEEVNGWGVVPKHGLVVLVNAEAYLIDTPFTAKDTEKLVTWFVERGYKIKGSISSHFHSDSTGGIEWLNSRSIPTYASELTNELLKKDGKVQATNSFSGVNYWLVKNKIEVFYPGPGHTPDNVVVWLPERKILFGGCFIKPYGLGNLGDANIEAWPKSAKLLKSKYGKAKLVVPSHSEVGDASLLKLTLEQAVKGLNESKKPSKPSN
Assay: Enzyme activity: determination of IC50, fluorescence assay with CCF2-FA substrate
Format: biochemical
Settings: enzyme 2 pM, CCF2-FA 1.25 μM, 2 hours at 25° C.; read-out: IMP1 IC50
Recorded pIC50 values for a group of compounds are listed next.
The scale used: pIC50 is minus the common logarithm of the concentration in molar units.

The recorded pIC50 for CCC[C@H](C(=O)O)[C@H](Cc1ccc(N2CCN3CCCC3C2)cc1)c1nn[nH]n1 (stereo partly shown) [Example 232] is 6.38

---

Molecular target: NDM-1 (Klebsiella pneumoniae, UniProt C7C422)
Sequence (C7C422 29-270, looked up, species assumed): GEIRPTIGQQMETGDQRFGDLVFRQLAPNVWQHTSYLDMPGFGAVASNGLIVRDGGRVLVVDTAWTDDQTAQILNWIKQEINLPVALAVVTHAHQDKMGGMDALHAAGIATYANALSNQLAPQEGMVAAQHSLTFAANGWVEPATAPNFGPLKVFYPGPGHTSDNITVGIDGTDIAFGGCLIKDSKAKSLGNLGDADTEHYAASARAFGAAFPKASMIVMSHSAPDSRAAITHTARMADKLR
Assay: Enzyme activity: determination of IC50, fluorescence assay with CCF2-FA substrate
Type: biochemical
Settings: enzyme 1 pM, CCF2-FA 1.25 μM, 2 hours at 25° C.; read-out: NDM1 IC50
experimental_readout: IC50 (nM)
Give a bare numeral; the unit nM is implied.

Look over these answered cases.
1. CCC[C@H](C(=O)O)[C@H](Cc1ccc(-c2ccc3c(c2)CNC3=O)cc1)c1nnn[nH]1 [Example 234] : 17
2. CC(C)[C@H](C(=O)O)[C@H](Cc1ccc(C2CCNCC2)nc1)c1nnn[nH]1 [Example 104] : 180

--- query ---
The recorded IC50 for CCC[C@H](C(=O)O)[C@H](Cc1ccc(-c2c(C)nn(C)c2C)cc1)c1nnn[nH]1 [Example 235] is 8.3

---

Tested on: Klebsiella pneumoniae expressing VIM-1 (IHMA599644)
Test: Antibiotic potentiation activity: synergistic concentration (MITC95) with imipenem, growth by OD600
Format: cell-based
Conditions: 95% inhibition of bacterial growth, strain IHMA599644
Note to self: values exactly at 50 µM are Satisfied. So VIM1 KP599644 MITC95 at or above 50 µM is Satisfied, below is Not satisfied.

1) CCC[C@H](C(=O)O)[C@H](Cc1ccc(-c2ccc(CN(C)C)cc2)cc1)c1nnn[nH]1 : Satisfied
2) CCC[C@H](C(=O)O)[C@H](Cc1ccc(-c2ccc3[nH]ncc3c2)cn1)c1nnn[nH]1 : Satisfied
3) CCC[C@H](C(=O)O)[C@H](Cc1ccc(-c2cn(C)c(=O)n(C)c2=O)cc1)c1nn[nH]n1 : Satisfied
4) CCC[C@H](C(=O)O)[C@H](Cc1ccc(-c2ccc(N3CCNCC3)nc2)cc1)c1nn[nH]n1 : Not satisfied
5) CCC[C@H](C(=O)O)[C@H](Cc1ccc(-c2csc(N3CCOCC3)n2)cc1)c1nn[nH]n1 : Satisfied

Determine whether measured VIM1 KP599644 MITC95 meets or exceeds 50 µM for O=C(O)[C@@H](C1CCOC1)[C@H](Cc1ccc(C2CCNC2)cc1)c1nnn[nH]1 (stereo partly drawn) Not satisfied

Determine whether measured VIM1 KP599644 MITC95 meets or exceeds 50 µM for CCC[C@H](C(=O)O)[C@H](Cc1ccc(-c2cccc(C3CCCNC3)c2)cc1)c1nn[nH]n1 (stereo partly drawn) Not satisfied

Determine whether measured VIM1 KP599644 MITC95 meets or exceeds 50 µM for `CCC[C@H](C(=O)O)[C@H](Cc1ccc(Oc2ccc(CN)cc2)nc1)c1nnn[nH]1` Not satisfied

Determine whether measured VIM1 KP599644 MITC95 meets or exceeds 50 µM for `CCC[C@H](C(=O)O)[C@H](Cc1ccc(-c2c(C)nn(C)c2C)nc1)c1nnn[nH]1` Satisfied

Numbers sourced from patent US9839642B2.
